Measured koff accompanies every entry in the list below.
target system: T1, human IL-11 (AAH12506.1, Pro22-Leu199) (human, UniProt P20809 22-199)
T1 construct: The range Pro22-Leu199 counts on AAH12506.1; The Octet runs say only 'human IL-11'; also called hIL-11
T1 chain: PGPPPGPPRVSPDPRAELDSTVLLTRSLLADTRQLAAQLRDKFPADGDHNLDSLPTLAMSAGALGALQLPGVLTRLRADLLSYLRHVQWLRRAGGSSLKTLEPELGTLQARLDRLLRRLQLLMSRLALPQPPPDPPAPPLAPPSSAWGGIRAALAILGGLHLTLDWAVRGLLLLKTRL
assay remarks: BLI (Octet), antibody captured, human IL-11 in solution
The reply should be a number in s⁻¹, with the unit left off.

binder	koff, s⁻¹
hz18A10-VH + hz18A10-VLm2 (antibody, V domains shown, Constant regions not restated for this antibody) VH: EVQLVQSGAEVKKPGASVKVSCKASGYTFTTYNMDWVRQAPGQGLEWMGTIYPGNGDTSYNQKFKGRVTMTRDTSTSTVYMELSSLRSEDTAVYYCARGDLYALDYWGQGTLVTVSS VL: DIQMTQSPSSLSASVGDRVTITCKASYSVSNDVAWYQQKPGKAPKLLIYSASNRYTGVPSRFSGSGSGTDFTFTISSLQPEDIATYYCQHDYSSPYTFGQGTKLEIK	0.00185
hz18A10-VH + hz18A10-VLm9 (antibody, V domains shown, Constant regions not restated for this antibody) VH: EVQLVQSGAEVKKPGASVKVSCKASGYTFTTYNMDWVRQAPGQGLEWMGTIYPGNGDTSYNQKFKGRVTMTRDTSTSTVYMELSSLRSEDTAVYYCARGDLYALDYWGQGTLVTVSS VL: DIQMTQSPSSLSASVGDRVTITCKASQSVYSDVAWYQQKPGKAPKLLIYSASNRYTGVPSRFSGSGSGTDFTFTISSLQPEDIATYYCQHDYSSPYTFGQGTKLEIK	0.000463
hz18A10-VHm3 + hz18A10-VLm19 (antibody, V domains shown, Constant regions not restated for this antibody) VH: EVQLVQSGAEVKKPGASVKVSCKASGYTFTTYDMDWVRQAPGQGLEWMGTIYPGNGDTSYNQKFKGRVTMTRDTSTSTVYMELSSLRSEDTAVYYCARGDLYALDYWGQGTLVTVSS VL: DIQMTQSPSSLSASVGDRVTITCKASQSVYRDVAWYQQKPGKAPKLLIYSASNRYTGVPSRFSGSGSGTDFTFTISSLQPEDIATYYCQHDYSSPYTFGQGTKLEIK	0.000652

koff recorded for this binder, hz18A10-VH + hz18A10-VLm16 (antibody, V domains shown, Constant regions not restated for this antibody) VH: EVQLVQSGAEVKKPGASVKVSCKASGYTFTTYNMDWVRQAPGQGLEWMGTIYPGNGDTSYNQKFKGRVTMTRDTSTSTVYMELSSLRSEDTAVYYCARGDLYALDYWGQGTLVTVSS VL: DIQMTQSPSSLSASVGDRVTITCKASQSVSNDVAWYQQKPGKAPKLLIYRASRRYPGVPSRFSGSGSGTDFTFTISSLQPEDIATYYCQHDYSSPYTFGQGTKLEIK , is 0.000938

Per the records, this binder ( hz18A10-VHm7 + hz18A10-VLm19 (antibody, V domains shown, Constant regions not restated for this antibody) VH: EVQLVQSGAEVKKPGASVKVSCKASGYTFTTYDIDWVRQAPGQGLEWMGTIYPGNGDTSYNQKFKGRVTMTRDTSTSTVYMELSSLRSEDTAVYYCARGDLYALDYWGQGTLVTVSS VL: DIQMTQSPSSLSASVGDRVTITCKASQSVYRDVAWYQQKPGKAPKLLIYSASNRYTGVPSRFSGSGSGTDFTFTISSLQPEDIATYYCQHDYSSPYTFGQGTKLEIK ) has koff equal to 0.000113
